Data origin, for the record: ChEMBL document CHEMBL1132871

# Test system: Mycobacterium avium
# test: The compound was tested for its ability to inhibit the growth of Mycobacterium avium.
# Format: functional
measurementLabel: MIC (µg/mL)
Write the answer as a number in µg/mL, unit excluded.

Below: 3 compounds and their reported MIC.
compound	unitLabel	MIC
COCCOCCOCC[N+]1(C)CC23C4=C5C6=C7c8c9c%10c%11c%12c%13c%14c(c2c2c%15c%16c%17c%18c%19c(c5c5c%20c%21c%22c%23c(c8C%22C65)c%10c5c%11c6c%13c8c(c%15%14)c%16c%10c%18c%11c(c%20%19)c%21c%13c%23c5c5c%13c%11c%10c8c65)C%17C42)C%12C9C73C1COCCOCCOC.[I-] (stereo not given)	µg/mL	50
COCCOCCOCC[N+]1(C)CC23C4=C5C6=C7c8c9c%10c%11c%12c%13c%14c(c2c2c%15c%16c%17c%18c%19c(c5c5c%20c%21c%22c%23c(c8C%22C65)c%10c5c%11c6c%13c8c(c%15%14)c%16c%10c%18c%11c(c%20%19)c%21c%13c%23c5c5c%13c%11c%10c8c65)C%17C42)C%12C9C73C1.[I-] (stereo not given)	µg/mL	500
COCCOCCOCC1C23C4=C5C6=C7C8c9c(c%10c%11c%12c%13c%14c%15c(c4c4c%16c%17c%18c%19c%20c(c6c6c%21c%22c(c%23c9c%11c9c%23c%11c%22c%22c(c%20%21)c%19c%19c%17c%17c(c%15%16)c%14c%14c%12c9c9c%11c%22c%19c%17c%149)C68)C5C4%18)C2C%10%13)C73C[N+]1(C)C.[I-] (stereo not given)	µg/mL	500

Turning now to a further record.
(Q) Answer with the recorded MIC of COCCOCCOCCN1CC23C4=C5C6=C7c8c9c%10c%11c%12c%13c%14c(c2c2c%15c%16c%17c%18c%19c(c5c5c%20c%21c%22c%23c(c8C%22C65)c%10c5c%11c6c%13c8c(c%15%14)c%16c%10c%18c%11c(c%20%19)c%21c%13c%23c5c5c%13c%11c%10c8c65)C%17C42)C%12C9C73C1COCCOCCOC (stereo not given) only.
(A) 50
